Hello, the source for this data is patent US20020025974A1, in case you need it.

studySystem: Alpha-2D adrenergic receptor (Rattus norvegicus, UniProt P22909)
Construct: aliquots of the synaptic membrane fraction, the ligand ^3H-para-aminoclonidine and test drug; from tissue; host or cells: rat brain cortex synaptic membrane fraction (male Wistar rats)
Sequence (P22909 1-465): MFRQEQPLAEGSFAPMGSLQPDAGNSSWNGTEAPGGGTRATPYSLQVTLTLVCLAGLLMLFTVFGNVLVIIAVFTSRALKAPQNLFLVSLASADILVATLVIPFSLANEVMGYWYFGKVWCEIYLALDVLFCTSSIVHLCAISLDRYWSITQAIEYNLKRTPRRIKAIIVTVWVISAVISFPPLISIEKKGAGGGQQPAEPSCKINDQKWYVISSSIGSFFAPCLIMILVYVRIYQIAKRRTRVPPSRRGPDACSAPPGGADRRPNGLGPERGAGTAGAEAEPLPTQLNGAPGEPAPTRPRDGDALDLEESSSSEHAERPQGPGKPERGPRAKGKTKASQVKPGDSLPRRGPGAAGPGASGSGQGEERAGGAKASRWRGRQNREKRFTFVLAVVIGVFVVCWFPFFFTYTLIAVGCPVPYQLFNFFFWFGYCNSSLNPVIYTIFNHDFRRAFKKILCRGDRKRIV
protocolDescription: Alpha-2D adrenergic receptor binding assay (3H-para-aminoclonidine, rat cortex synaptic membranes)
assaySetup: α2D Ki, ligand 3H-para-aminoclonidine, 25° C. 20 min
reportedEndpoint: pKi
Answers are plain numbers, as −log10 of the molar value.

Field: example entries. Status: answers known.
Would you mind telling me what pKi value was observed for `Brc1c(Cc2c[nH]cn2)sc2ccccc12` ?
9.66

Would you mind telling me what pKi value was observed for OC(c1c[nH]cn1)c1cc2ccccc2s1 (centres unmarked) ?
7.13

Would you mind telling me what pKi value was observed for `c1ccc2c(Cc3c[nH]cn3)csc2c1` ?
10.05

Would you mind telling me what pKi value was observed for `c1ccc2sc(Cc3c[nH]cn3)cc2c1` ?
8.96

--- query ---
Would you mind telling me what pKi value was observed for CC(c1c[nH]cn1)c1cc2ccccc2s1 (centres unmarked) ?
7.85
